The origin of these recorded values is PubChem BioAssay AID1578.

Experiment: NOD1 signaling inhibitors, primary screen, cell-based, luminescence, uHTS (AID 1578);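 note: HEK-293T reporter cells stimulated with the NOD1 agonist gamma-tri-DAP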
Details: NOD1-driven NF-kB luciferase reporter cells, at 4 µM, active compounds read high
In all, about 290,000 compounds went through this assay and about 3,000 (1%) were called active. The sample holds actives, similar compounds and a random draw of the others, so the mix is not that of the screen.
inhibition by entry:

molecule	value_unit	inhibition
COc1ccc(NC(=O)C(NC(=O)c2ccc(C)cc2)c2ccccc2)cc1 (stereo not given)	%	62.7
O=C(CCn1c2c(c3ccccc31)CCCC2)NNC(=O)c1ccc([N+](=O)[O-])cc1	%	-4.7
O=C(COC(=O)c1cccc(O)c1)NCc1ccc2c(c1)OCO2	%	-14.3
Cc1ccc(C(=O)NC(C(=O)Nc2ccccc2)c2ccccc2)cc1 (stereo not given)	%	-3.5
CC(=O)Nc1ccc(S(=O)(=O)N2CCCC2C(=O)Nc2ccc3c(c2)OCCO3)cc1 (stereo not given)	%	-17.3
CC(C)c1ccc(NC2CCCN(C(=O)c3ccc(N4CCOCC4)cc3)C2)cc1 (stereo not given)	%	-4
C/C(N)=C(/C#N)C(=O)COC(=O)CC12CC3CC(CC(C3)C1)C2	%	14.9
c1ccc(-c2nnsc2Sc2ccccn2)cc1	%	-52.7
Cc1ccc(S(=O)(=O)CCC(=O)OCC(=O)c2c[nH]c3ccccc23)cc1	%	17.3
COc1cc(OC)cc(C(=O)OCCCOC(=O)c2cc(OC)cc(OC)c2)c1	%	-7.2
